test-target: ~100 representative kinases (Homo sapiens, UniProt P15056)
Construct: Recombinant protein kinase domains with a concentration of 2 μM
Sequence (P15056 whole entry, the tested form may be a part): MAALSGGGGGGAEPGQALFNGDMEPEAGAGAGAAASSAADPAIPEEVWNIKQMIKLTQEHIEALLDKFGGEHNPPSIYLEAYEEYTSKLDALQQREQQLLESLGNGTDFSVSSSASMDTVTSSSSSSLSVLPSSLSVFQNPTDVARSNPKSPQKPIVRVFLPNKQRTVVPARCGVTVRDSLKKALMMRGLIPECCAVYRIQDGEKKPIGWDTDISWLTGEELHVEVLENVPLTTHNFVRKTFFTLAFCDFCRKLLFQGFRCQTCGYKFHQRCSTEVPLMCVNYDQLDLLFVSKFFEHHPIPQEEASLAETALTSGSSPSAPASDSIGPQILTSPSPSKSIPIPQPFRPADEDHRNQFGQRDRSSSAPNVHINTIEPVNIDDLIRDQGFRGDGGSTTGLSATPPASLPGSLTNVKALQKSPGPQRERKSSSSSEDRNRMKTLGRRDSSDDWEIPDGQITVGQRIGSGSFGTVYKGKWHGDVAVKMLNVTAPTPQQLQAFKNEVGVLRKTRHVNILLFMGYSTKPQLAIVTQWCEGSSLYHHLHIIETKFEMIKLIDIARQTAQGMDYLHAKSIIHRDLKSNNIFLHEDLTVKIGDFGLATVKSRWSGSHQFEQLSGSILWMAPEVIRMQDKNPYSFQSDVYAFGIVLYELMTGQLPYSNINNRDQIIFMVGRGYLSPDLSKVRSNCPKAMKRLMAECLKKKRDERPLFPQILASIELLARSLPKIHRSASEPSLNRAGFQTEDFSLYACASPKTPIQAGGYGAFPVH
experimental-details: DSF 100 kinase selectivity screen;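 further: compound tested at 20 µM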
Type: binding
cond: Protein BRAF; average of three replicates
Parameter dTm: see the listing below.
Reply numerically in K, unit not repeated.

molecule	test-target	dTm, K
O=C(Nc1cccc(-c2c[nH]c3ncnc(N4CCOCC4)c23)c1)C1(C(=O)Nc2ccc(F)c(Br)c2F)CC1	~100 representative kinases (Homo sapiens, UniProt P15056)	9.02
O=C(Nc1cccc(-c2c[nH]c3ncnc(N4CCOCC4)c23)c1)C1(C(=O)Nc2ccc(F)c(Br)c2)CC1	~100 representative kinases (Homo sapiens, UniProt P15056)	13.24
CCc1ccc(NC(=O)C2(C(=O)Nc3cccc(-c4c[nH]c5ncnc(N6CCOCC6)c45)c3)CC2)cc1	~100 representative kinases (Homo sapiens, UniProt P15056)	9.26
Cc1ccc(C(=O)Nc2ccc(CN3CCN(C)CC3)c(C(F)(F)F)c2)cc1C#Cc1cnc2cccnn12 [Ponatinib, reference compound]	~100 representative kinases (Homo sapiens, UniProt P15056)	36.88
Cc1ccc(NC(=O)C2(C(=O)Nc3cccc(-c4c[nH]c5ncnc(N6CCOCC6)c45)c3)CC2)cc1	~100 representative kinases (Homo sapiens, UniProt P15056)	8.39

Request: What measured dTm goes with Cc1cc(F)ccc1NC(=O)C1(C(=O)Nc2cccc(-c3c[nH]c4ncnc(N5CCOCC5)c34)c2)CC1 ?
Result: 8.44

Request: Could you do the same for O=C(Nc1cccc(-c2c[nH]c3ncnc(N4CCOCC4)c23)c1)C1(C(=O)Nc2cc(Br)c(F)cc2F)CC1 , please?
Result: 11.56

Request: Could you do the same for Cc1cc(NC(=O)C2(C(=O)Nc3ccc(F)cc3)CC2)cc(-c2c[nH]c3ncnc(N4CCOCC4)c23)c1 , please?
Result: 12.36

Request: Could you do the same for Cc1ccc(C(=O)Nc2ccc(CN3CCN(C)CC3)c(C(F)(F)F)c2)cc1C#Cc1c[nH]c2ncnc(N3CCOCC3)c12 , please?
Result: 35.22

----------
test-target: ~100 representative kinases (Homo sapiens)
Construct: Recombinant protein kinase domains with a concentration of 2 μM
experimental-details: DSF 100 kinase selectivity screen;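 further: compound tested at 20 µM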
Format: binding
cond: protein MAPK10; average of three replicates
property-measured: dTm (K)
Reply numerically in K, unit not repeated.

molecule	test-target	value-observed
CCSc1nc(NC)c2c(-c3cccc(NC(=O)Nc4cc(C(C)(C)C)nn4-c4ccc(C)cc4)c3)c[nH]c2n1	~100 representative kinases (Homo sapiens)	3.75
Cc1cc(NC(=O)C2(C(=O)Nc3ccc(F)cc3)CC2)cc(-c2c[nH]c3ncnc(N4CCOCC4)c23)c1	~100 representative kinases (Homo sapiens)	2.20
O=C(Nc1cccc(-c2c[nH]c3ncnc(N4CCOCC4)c23)c1)C1(C(=O)Nc2ccc(F)c(F)c2)CC1	~100 representative kinases (Homo sapiens)	1.84
O=C(Nc1cccc(-c2c[nH]c3ncnc(N4CCOCC4)c23)c1)C1(C(=O)Nc2ccc(F)cc2F)CC1	~100 representative kinases (Homo sapiens)	-0.75
O=C(Nc1ccc(Cl)cc1)C1(C(=O)Nc2cccc(-c3c[nH]c4ncnc(N5CCOCC5)c34)c2)CC1	~100 representative kinases (Homo sapiens)	3.61

Request: What measured dTm goes with COc1cc2c(Oc3ccc(NC(=O)C4(C(=O)Nc5ccc(F)cc5)CC4)cc3F)ccnc2cc1OCCCN1CCOCC1 [Foretinib, reference compound] ?
Result: 1.66

Request: Could you do the same for O=C(Nc1cccc(-c2c[nH]c3ncnc(N4CCOCC4)c23)c1)C1(C(=O)Nc2cccc3c2CCC3)CC1 , please?
Result: 5.69

Request: Could you do the same for COc1cc(NC(=O)C2(C(=O)Nc3cccc(-c4c[nH]c5ncnc(N6CCOCC6)c45)c3)CC2)ccc1F , please?
Result: 0.29

Request: Could you do the same for O=C(Nc1cccc(-c2c[nH]c3ncnc(N4CCOCC4)c23)c1)C1(C(=O)Nc2ccc(F)c(Br)c2F)CC1 , please?
Result: 5.85

Request: Could you do the same for Cc1ccc(C(=O)Nc2ccc(CN3CCN(C)CC3)c(C(F)(F)F)c2)cc1C#Cc1c[nH]c2ncnc(N3CCOCC3)c12 , please?
Result: 4.55

Request: Could you do the same for O=C(Nc1ccc(F)cc1)C1(C(=O)Nc2cccc(-c3c[nH]c4ncnc(N5CCOCC5)c34)c2)CC1 , please?
Result: -0.56

Request: Could you do the same for Cc1ccc(NC(=O)C2(C(=O)Nc3cccc(-c4c[nH]c5ncnc(N6CCOCC6)c45)c3)CC2)cc1 , please?
Result: -1.31

Request: Could you do the same for Cc1cc(F)ccc1NC(=O)C1(C(=O)Nc2cccc(-c3c[nH]c4ncnc(N5CCOCC5)c34)c2)CC1 , please?
Result: -0.11

Request: Could you do the same for Cc1ccc(C(=O)Nc2ccc(CN3CCN(C)CC3)c(C(F)(F)F)c2)cc1C#Cc1cnc2[nH]ncc2c1 [GZD-824, reference compound] , please?
Result: 2.46
